Hello, the source for this data is paper PMC9090415, in case you need it.

For each entry below, report its DNA Pol value.
test_target: P. falciparum apicoplast DNA polymerase (Pf-apPOL) (Plasmodium falciparum)
assay_overview: Fluorescence-based high-throughput DNA polymerase assay (molecular beacon), primary screen and dose-response
Assay type: biochemical
study_conditions: "DNA Pol" of the 186 hits list (screen value); 90 min, 10 µM
Answers are plain numbers.

Some compounds with known DNA Pol results, for comparison:
{"columns": ["compound", "test_target", "readout_value"],
 "data": [
  ["Cc1ccc(NC(=O)C2CCN(C(=O)c3cc4ccsc4[nH]3)CC2)c(Br)c1 [Molecule 14]", "P. falciparum apicoplast DNA polymerase (Pf-apPOL) (Plasmodium falciparum)", 67],
  ["COc1ccc(-c2n[nH]cc2Oc2ccc(Cl)cc2)c(O)c1 [KU0029837]", "P. falciparum apicoplast DNA polymerase (Pf-apPOL) (Plasmodium falciparum)", 54]
]}

Would you kindly look at the next entry?
Query (compound): CCCCC(=O)N1CCc2c(nc3cc(-c4ccccc4Cl)[nH]n3c2=O)C1 [Molecule 37] ; field requested: DNA Pol 43

###

test_target: bacteriophage T4 DNA polymerase (Enterobacteria phage T4, UniProt P04415)
Construct: made in house
assay_overview: Counter-screen against bacteriophage T4 DNA polymerase
Type: biochemical
study_conditions: DRC-1; read at 130'; concentration 20
For each entry below, report its % inhibition T4 130' 20 value.
Answers are plain numbers, in %.

Some molecules with known % inhibition T4 130' 20 results, for comparison:
{"columns": ["molecule", "% inhibition T4 130' 20 (%)"],
 "data": [
  ["Cc1ccsc1Cn1c(C)ccc1C", 4.205],
  ["N#Cc1c(O)nc(N2CCCCC2)nc1-c1ccc2c(c1)OCO2", -8.629],
  ["O=C(CCc1csc(NC(=O)Nc2ccccc2)n1)Nc1nc2ccccc2s1", 11.4415],
  ["Cc1nc(C)c2c(n1)N(CC1CCCCC1)C(=O)CC2", -9.978],
  ["COc1ccc(/C=C/c2cc(C(=O)O)c3ccccc3n2)cc1", 3.3008]
]}

I have 2 molecules here; please give me % inhibition T4 130' 20 for each one.
1. COc1ccc(C2CC(c3ccc(Cl)cc3Cl)Nc3nc(N)nn32)cc1OC (centres unmarked)
2. Cc1ccc(N2CCC(NC(=O)Cc3cccs3)C2=O)cc1C (centres unmarked)

[-1.3, 13.7416]

Query (molecule): `CC(=O)OCC1=C(C(=O)[O-])N2C(=O)[C@@H](NC(=O)Cc3cccs3)[C@H]2SC1.[Na+]` ; field requested: % inhibition T4 130' 20 16.8593

###

test_target: P. falciparum apicoplast DNA polymerase (Pf-apPOL) (Plasmodium falciparum)
assay_overview: Fluorescence-based high-throughput DNA polymerase assay (molecular beacon), primary screen and dose-response
Format: biochemical
study_conditions: DRC-2; 40'; concentration 80
metric: % inhibition Apol 40' (%)
Give bare numbers, in %.

Some molecules with known % inhibition Apol 40' results, for comparison:
{"columns": ["molecule", "% inhibition Apol 40' (%)"],
 "data": [
  ["O=C(CSc1nnc(-c2ccncc2)[nH]1)c1ccc(O)c(O)c1", 78],
  ["CCCN1COc2ccc3c(=O)c(-c4ccccc4)coc3c2C1", 51],
  ["CCOC(=O)C1=C2c3cc(OC)c(OC)cc3CC(C)(C)N2C(=O)C1=O", 57],
  ["O=C(Cn1ccc2c(=O)[nH]ccc21)Nc1cccc(Cl)c1 [Molecule 23, O=C(Cn1ccc2c1cc[nH]c2=O)Nc1cccc(c1)Cl]", 49],
  ["Cc1ccc2c(C(=O)NCCc3cccnc3)cc(NC(=O)C(C)C)cc2n1", 70]
]}

I have 3 molecules here; please give me % inhibition Apol 40' for each one.
1. CCCCOC(=O)CCCCCN1C(=O)C(=Cc2ccc(OC)cc2)SC1=S
2. O=C(CSc1nc2ccccc2s1)Nc1ncc([N+](=O)[O-])s1
3. O=C(O)c1cc([N+](=O)[O-])c(N2CCN(c3cccc(C(F)(F)F)c3)CC2)c([N+](=O)[O-])c1

1. 69
2. -70
3. 75

Query (molecule): `O=C(Nc1cccc(Cl)c1)Nc1nnc(-c2ccncc2)s1` ; field requested: % inhibition Apol 40' 57

###

test_target: P. falciparum apicoplast DNA polymerase (Pf-apPOL) (Plasmodium falciparum, UniProt Q8ILY1)
Sequence (Q8ILY1 entry or part of it): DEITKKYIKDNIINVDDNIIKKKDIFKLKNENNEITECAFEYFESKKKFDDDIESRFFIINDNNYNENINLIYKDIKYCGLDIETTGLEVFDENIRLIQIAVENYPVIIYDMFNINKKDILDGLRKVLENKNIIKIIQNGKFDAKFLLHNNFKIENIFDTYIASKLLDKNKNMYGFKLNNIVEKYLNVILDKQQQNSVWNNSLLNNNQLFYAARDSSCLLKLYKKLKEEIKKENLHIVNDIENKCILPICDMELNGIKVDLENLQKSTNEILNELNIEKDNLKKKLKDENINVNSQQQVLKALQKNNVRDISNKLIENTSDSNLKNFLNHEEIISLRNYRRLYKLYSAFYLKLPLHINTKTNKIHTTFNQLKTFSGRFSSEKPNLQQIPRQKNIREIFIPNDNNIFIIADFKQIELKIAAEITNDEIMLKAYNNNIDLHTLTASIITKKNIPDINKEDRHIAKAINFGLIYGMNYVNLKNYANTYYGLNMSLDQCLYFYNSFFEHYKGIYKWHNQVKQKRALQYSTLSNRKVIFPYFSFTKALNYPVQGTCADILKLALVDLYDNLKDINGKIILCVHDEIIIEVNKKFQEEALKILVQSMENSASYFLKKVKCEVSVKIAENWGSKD
assay_overview: Fluorescence-based high-throughput DNA polymerase assay (molecular beacon), primary screen and dose-response;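 for % inhibition Apol 40': compound concentration given in µM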
Type: biochemical
study_conditions: DRC-2; 40'; concentration 10
For each entry below, report its % inhibition Apol 40' value.
One number for each entry, in %.

Some compounds with known % inhibition Apol 40' results, for comparison:
{"columns": ["compound", "% inhibition Apol 40' (%)"],
 "data": [
  ["COc1ccc(-c2cc(=O)c3cc(O)ccc3o2)cc1OC", 19],
  ["O=c1[nH]c2ccc([N+](=O)[O-])cc2c(-c2ccccc2)c1Sc1nc2ccccc2o1", 24],
  ["COc1ccc(-c2occ(C(=O)O)c2C(=O)O)cc1", 48]
]}

Would you kindly look at the next entry?
Query (compound): Cc1cccc(NC(=O)Cn2ccc3c(=O)[nH]ccc32)c1C [Molecule 11, O=C(Cn1ccc2c1cc[nH]c2=O)Nc1cccc(c1C)C] ; field requested: % inhibition Apol 40' 58

###

test_target: P. falciparum apicoplast DNA polymerase (Pf-apPOL) (Plasmodium falciparum, UniProt Q8ILY1)
assay_overview: Fluorescence-based high-throughput DNA polymerase assay (molecular beacon), primary screen and dose-response;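 for % inhibition ApPOL 90': test concentration in µM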
Assay type: biochemical
study_conditions: DRC-2, 90', concentration 10
metric: % inhibition ApPOL 90' (%)
Give bare numbers, in %.

I have 6 molecules here; please give me % inhibition ApPOL 90' for each one.
1. O=C(Nc1ncc([N+](=O)[O-])s1)c1ccc2c(c1)C(=O)N(N1C(=O)c3ccccc3C1=O)C2=O
2. COc1ccccc1CCC(=O)N1CCc2c(nc3cc(-c4ccccc4)[nH]n3c2=O)C1
3. CSC(C)C(=O)C=CN(C)C (stereo not drawn)
4. O=C(O)CC1SC(c2ccc3c(c2)OCO3)=NC1=O (stereo not drawn)
5. CCOc1ccccc1-c1nc(-c2ccc(=O)[nH]c2)no1 [Molecule 76, CCOc1ccccc1c1onc(n1)c1ccc(=O)[nH]c1]
6. Cc1ncc(CSc2nc(C(C)(C)C)cs2)c(CO)c1O

[26, 57, 15, 10, 15, 14]

###

test_target: P. falciparum apicoplast DNA polymerase (Pf-apPOL) (Plasmodium falciparum, UniProt Q8ILY1)
assay_overview: Fluorescence-based high-throughput DNA polymerase assay (molecular beacon), primary screen and dose-response;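 for % inhibition Apol 40': compound concentration given in µM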
Type: biochemical
study_conditions: DRC-2, 40', concentration 80 (unit not given)
For each entry below, report its % inhibition Apol 40' value.
Answers are plain numbers, in %.

{"columns": ["molecule", "metric", "readout_value"],
 "data": [
  ["Cc1cc(C)c2c(O)nc(SCC(=O)c3ccc(O)c(O)c3)nc2n1", "% inhibition Apol 40'", 54],
  ["O=c1cc(CN2CCCCC2)c2cc3c(cc2o1)OCO3", "% inhibition Apol 40'", 68]
]}

Query (compound): `CCOc1cccc2cc(C(=O)Nc3nnc(-c4ccno4)o3)oc12` ; field requested: % inhibition Apol 40' 66

###

test_target: bacteriophage T4 DNA polymerase (Enterobacteria phage T4, UniProt P04415)
Construct: made in house
Sequence (P04415 1-898): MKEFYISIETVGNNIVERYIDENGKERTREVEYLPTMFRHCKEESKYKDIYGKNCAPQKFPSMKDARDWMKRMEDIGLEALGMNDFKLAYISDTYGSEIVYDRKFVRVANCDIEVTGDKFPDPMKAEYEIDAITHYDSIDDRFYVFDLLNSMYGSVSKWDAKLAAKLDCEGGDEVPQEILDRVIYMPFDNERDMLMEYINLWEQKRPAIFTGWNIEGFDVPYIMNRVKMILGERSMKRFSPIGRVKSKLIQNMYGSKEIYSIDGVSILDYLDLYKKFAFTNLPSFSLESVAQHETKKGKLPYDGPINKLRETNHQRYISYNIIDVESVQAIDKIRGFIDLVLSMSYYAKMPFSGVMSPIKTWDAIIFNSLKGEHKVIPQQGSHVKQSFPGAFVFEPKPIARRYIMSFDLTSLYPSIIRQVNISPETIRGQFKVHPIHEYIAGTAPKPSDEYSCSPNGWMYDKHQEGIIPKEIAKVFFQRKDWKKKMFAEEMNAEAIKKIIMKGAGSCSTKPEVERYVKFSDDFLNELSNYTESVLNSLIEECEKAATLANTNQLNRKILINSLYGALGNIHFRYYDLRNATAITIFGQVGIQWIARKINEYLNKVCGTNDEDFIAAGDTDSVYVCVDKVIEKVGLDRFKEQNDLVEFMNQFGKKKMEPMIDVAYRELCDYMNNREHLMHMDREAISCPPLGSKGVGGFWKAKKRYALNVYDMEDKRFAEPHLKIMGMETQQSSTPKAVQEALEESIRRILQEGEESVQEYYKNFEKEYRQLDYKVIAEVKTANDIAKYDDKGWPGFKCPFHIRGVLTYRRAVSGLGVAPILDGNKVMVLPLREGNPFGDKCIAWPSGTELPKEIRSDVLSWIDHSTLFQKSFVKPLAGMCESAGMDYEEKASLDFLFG
assay_overview: Counter-screen against bacteriophage T4 DNA polymerase
Format: biochemical
study_conditions: DRC-2; 40'; concentration 10
Classification field: enter 1 for % inhibition T4 40' values not below 20%, 0 for values below it.

Previously resolved entries follow.
{"columns": ["compound", "classification"],
 "data": [
  ["O=C(CSc1nnc(-c2ccco2)[nH]1)c1ccc(Cl)cc1", 0],
  ["O=C1C(=Cc2ccccc2O)Oc2ccc(O)cc21", 1],
  ["COc1ccc(-c2cc3nc4c(c(=O)n3[nH]2)CCN(C(=O)CCc2ccccc2)C4)cc1", 0],
  ["CCOC(=O)C1=C2c3cc(OC)c(OC)cc3CC(C)(C)N2C(=O)C1=O", 1],
  ["CC(NC(=O)Cc1cc(=O)[nH]c(SCc2cccc(Cl)c2)n1)c1ccccc1 (stereo not drawn)", 0],
  ["O=c1[nH]c2ccc([N+](=O)[O-])cc2c(-c2ccccc2)c1Sc1nc2ccccc2o1", 1],
  ["Cc1ccc(-n2nnc(C(=O)O)c2-c2ccccn2)c(F)c1", 1],
  ["CC(=O)c1cc2c(N)c(/C(N)=N/C#N)sc2nc1C", 0]
]}

Please tell me: is the compound `COc1ccc(-c2n[nH]cc2Oc2ccc(Cl)cc2)c(O)c1` at or over 20% in terms of % inhibition T4 40'? 0
